Tgt: human GABAA α1β3γ2 receptor (Homo sapiens (Human), UniProt P14867+P18507)
Experiment summary: Radioligand binding assay for γ2-containing GABAA subtypes, [3H]Flumazenil competition (α1β3γ2)
Measurement conditions: Log[Ki α1β3γ2 (nM)/Ki α2β2γ1 (nM)]
Metric name: LogSel
Answers are plain numbers.

Example results:
[[record]]
molecule = "C[C@@H]1N=C(c2c(F)cccc2F)c2c(ccc(C(F)(F)F)c2Cl)-n2nc(NC(=O)N3C4CC3CS(=O)(=O)C4)nc21 (single isomer, unassigned) [Example 134]"
metric_name = "LogSel"
result = 1.88

[[record]]
molecule = "C[C@@H]1N=C(c2c(F)cccc2F)c2c(ccc(Cl)c2Cl)-n2ncnc21 [Example 15]"
metric_name = "LogSel"
result = 1.67

[[record]]
molecule = "C[C@@H]1N=C(c2ncccc2F)c2c(ccc(C(F)(F)F)c2Cl)-n2nc(C(=O)N3CC4(COC4)C3)nc21 [Example 112]"
metric_name = "LogSel"
result = 2.68


Pending molecule:
Hi! What's the reported LogSel for C[C@@H]1N=C(c2ncccc2F)c2c(ccc(C(F)(F)F)c2Cl)-n2cc(C(=O)N[C@H]3C[C@H](O)C3)nc21 [Example 165] on human GABAA α1β3γ2 receptor (Homo sapiens (Human), UniProt P14867+P18507)?
2.25

---

Tgt: human GABAA α2β2γ1 receptor (Homo sapiens (Human), UniProt P47869+Q8N1C3)
Experiment summary: Radioligand binding assay for γ1-containing GABAA subtypes, [3H]RO7239181 competition (α2β2γ1)
Measurement conditions: Ki h-GABAA α2β2γ1, displacement of [3H]RO7239181, membranes of HEK293F cells expressing human receptors, means of two determinations
Binning scheme for Ki: group 1 (below 10 nM), group 2 (10 nM to below 20 nM), group 3 (20 nM or more)

Some entries whose results are on file:
[[record]]
structure_notation = "C[C@@H]1N=C(c2ncccc2F)c2c(ccc(Cl)c2Cl)-n2nc(C(=O)N3CCC3)nc21"
label_class = "group 3"

[[record]]
structure_notation = "Cc1nc2n(n1)-c1ccc(Cl)c(Cl)c1C(c1ncccc1F)=N[C@H]2C"
label_class = "group 3"

[[record]]
structure_notation = "CO[C@@H]1CCN(C(=O)c2nc3n(n2)-c2ccc(Cl)c(Cl)c2C(c2c(F)cccc2F)=N[C@H]3C)C1"
label_class = "group 1"

[[record]]
structure_notation = "C[C@@H]1N=C(c2ncccc2F)c2c(ccc(Cl)c2Cl)-n2nc(C(=O)N3CC4(CCO4)C3)nc21"
label_class = "group 3"

[[record]]
structure_notation = "C[C@@H]1N=C(c2c(F)cccc2F)c2c(ccc(Cl)c2Cl)-n2nc(NC(=O)N3CC(F)C3)nc21"
label_class = "group 2"


Hi, small favor: classify "O=C(NC1COC1)c1nc2n(n1)-c1ccc(Cl)c(Cl)c1C(c1c(F)cccc1F)=NC2" by its Ki when you get a moment.
group 1

Also need "C[C@@H]1N=C(c2c(F)cccc2F)c2c(ccc(C(F)(F)F)c2Cl)-n2nc(NC(=O)N3CCS(=O)(=O)CC3)nc21" , thanks.
group 2

And for "C[C@@H]1N=C(c2c(F)cccc2F)c2c(ccc(Cl)c2Cl)-n2nc(C(=O)NCC#N)nc21" ?
group 1

// same read-out, input: "Fc1cccc(F)c1C1=NCc2nc(C(F)F)cn2-c2ccc(Br)c(Cl)c21"
group 3

Same question, "COC1CN(C(=O)Nc2nc3n(n2)-c2ccc(Cl)c(Cl)c2C(c2c(F)cccc2F)=N[C@H]3C)C1" this time
group 2
